measurementNotes: chemical genetic growth profiling, strain panel (AID 1159580);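 further: tested at 20 µM; growth read once vehicle control cultures reached saturation at 30 °C; 1 = growth at the plate median or of vehicle wells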
testContext: S. cerevisiae deletion strains, growth OD, locus YLR113W, strain HOG1, stronger effect = lower value
The campaign covered roughly 5,500 compounds. About 2,000 (36%) were called active. Inconclusive results (about 18%) are left out. The list shows a part of the results.
Parameter class (string): assigned from measured normalized growth. Ranges: bucket A: < 0.9; bucket B: ≥ 0.9 and < 1; bucket C: ≥ 1

- molecule: "NS(=O)(=O)c1cc(C2(O)NC(=O)c3ccccc32)ccc1Cl (centres undefined)"
  labelClass: "bucket B"
- molecule: "CN1C[C@H](C(=O)N[C@]2(C)O[C@@]3(O)[C@@H]4CCCN4C(=O)[C@H](Cc4ccccc4)N3C2=O)C[C@@H]2c3cccc4[nH]cc(c34)C[C@H]21"
  labelClass: "bucket C"
- molecule: "CCCCCCC(C)OC(=O)COc1ccc(Cl)cc1Cl (centres undefined)"
  labelClass: "bucket B"
- molecule: "CC1(C)C(=O)C=C[C@@]2(C)C1C=C[C@]1(C)C2CC[C@@]2(C)[C@H](c3ccoc3)OC(=O)C3OC321 (some centres undefined)"
  labelClass: "bucket B"
- molecule: "COC(=O)[C@@]1(C)CCC[C@]2(C)c3ccc(O)c(C(C)C)c3CCC12 (some centres undefined)"
  labelClass: "bucket A"
- molecule: "O=C(O[C@@H]1Cc2c(O)cc(O)cc2O[C@@H]1c1cc(O)c(=O)c2c(O)c(O)cc([C@H]3Oc4cc(O)cc(O)c4C[C@H]3O)c2c1)c1cc(O)c(O)c(O)c1"
  labelClass: "bucket C"
- molecule: "COc1ccc(/C=C2/C(=O)Nc3ccccc32)cc1"
  labelClass: "bucket A"
- molecule: "O=C1Nc2ccccc2/C1=C/c1ccc(Oc2ccccc2)nc1"
  labelClass: "bucket A"
- molecule: "CCCCC1C(=O)N(c2ccccc2)N(c2ccc(O)cc2)C1=O (centres undefined)"
  labelClass: "bucket B"
- molecule: "CCOC(=O)c1c(C)cc(OC)cc1O"
  labelClass: "bucket A"
- molecule: "Cc1ccc(C)n1-c1ccc(/C=C2/C(=O)Nc3ccccc32)cc1"
  labelClass: "bucket A"
- molecule: "COc1cc(Br)cc(C=Nc2ccc(Sc3ccccc3)nc2Sc2ccccc2)c1O"
  labelClass: "bucket A"
- molecule: "O=C1Nc2ccccc2/C1=C/c1ccc(C(F)(F)F)cc1Cl"
  labelClass: "bucket A"
- molecule: "O=C1Nc2ccccc2/C1=C\\c1ccc(Cl)cc1"
  labelClass: "bucket A"
- molecule: "O=C(O[C@@H]1Cc2c(O)cc(O)cc2O[C@@H]1c1cc(O)c(=O)c2c(O)c(O)cc([C@H]3Oc4cc(O)cc(O)c4C[C@H]3OC(=O)c3cc(O)c(O)c(O)c3)c2c1)c1cc(O)c(O)c(O)c1"
  labelClass: "bucket C"
- molecule: "O=C1Nc2ccccc2/C1=C\\c1cccc([N+](=O)[O-])c1"
  labelClass: "bucket B"
- molecule: "COc1c2ccoc2cc2oc(=O)ccc12"
  labelClass: "bucket B"
- molecule: "c1ccc(-c2nnc(-c3ccccn3)nc2-c2ccccc2)cc1"
  labelClass: "bucket A"
- molecule: "COC1=CC(=O)C(O)=C/C1=C\\C=C\\c1ccccc1"
  labelClass: "bucket A"

----------
measurementNotes: chemical genetic growth profiling, strain panel (AID 1159580);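 further: tested at 20 µM; growth read once vehicle control cultures reached saturation at 30 °C; 1 = growth at the plate median or of vehicle wells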
testContext: S. cerevisiae deletion strains, growth OD, locus YAL030W, strain snc1, stronger effect = lower value
In all, about 5,500 compounds went through this assay and about 2,000 (36%) were called active. Not shown: some 18% with an inconclusive outcome. The list shows a part of the results.

- compound: "C[C@]12CCC3c4ccc(O)cc4CCC3C1C[C@@H](O)[C@@H]2O (stereo partly specified)"
  normalized growth: 1.02
- compound: "O=C1[O][Bi][O]c2ccccc21"
  normalized growth: 0.972
- compound: "O=C(O)C1=C[C@@H](O)[C@@H](O)[C@H](O)C1"
  normalized growth: 0.969
- compound: "CCC1OC(=O)[C@H](C)C(=O)[C@H](C)[C@@H](OC2O[C@H](C)C[C@H](N(C)C)[C@H]2O)[C@](C)(OC)C2(CCCn3cnc(-c4cccnc4)c3)C[C@@H](C)C(=O)[C@H](C)[C@H]3N(C2)C(=O)O[C@]13C (stereo partly specified)"
  normalized growth: 0.981
- compound: "CNC(=O)Oc1cccc2c1OC(C)(C)O2"
  normalized growth: 1.01
- compound: "CC(=O)OCC1=C(C(=O)O)N2C(=O)[C@@H](NC(=O)Cc3cccs3)[C@H]2SC1"
  normalized growth: 1.02
- compound: "O=C(OC1Cc2c(O)cc(O)cc2OC1c1cc(=O)c(O)c2c(O)c(O)cc(C3Oc4cc(O)cc(O)c4CC3O)c2c1)c1cc(O)c(O)c(O)c1 (stereo unspecified)"
  normalized growth: 0.971
- compound: "O=c1ccc2c(O)c3ccoc3cc2o1"
  normalized growth: 0.989
- compound: "COc1cccc2c(C)cc(=O)[nH]c12"
  normalized growth: 0.977
- compound: "C[C@@H]([C@H](O)c1ccccc1)N(C)C"
  normalized growth: 1.02
- compound: "CC/C(=C(/CC)c1ccc(O)cc1)c1ccc(O)cc1"
  normalized growth: 1
- compound: "C=C(C)[C@H]1COc2cc3oc(=O)ccc3cc2O1"
  normalized growth: 0.933
- compound: "CC(C)(C)NCC(O)c1cc(O)cc(O)c1 (stereo unspecified)"
  normalized growth: 0.98
- compound: "CC[n+]1c(-c2ccccc2)c2cc(N)ccc2c2ccc(N)cc21"
  normalized growth: 0.971
- compound: "CCC(c1ccc(O)cc1)C(CC)c1ccc(O)cc1 (stereo unspecified)"
  normalized growth: 0.918
- compound: "CN1C[C@H](C(=O)N[C@]2(C)O[C@@]3(O)[C@@H]4CCCN4C(=O)[C@H](Cc4ccccc4)N3C2=O)C[C@@H]2c3cccc4[nH]cc(c34)C[C@H]21"
  normalized growth: 0.984
- compound: "COc1ccc2ccc(=O)oc2c1"
  normalized growth: 1
- compound: "CCOCN(C(=O)CCl)c1c(C)cccc1CC"
  normalized growth: 0.992
- compound: "CCC(N)C(O)c1ccc(O)c(O)c1 (stereo unspecified)"
  normalized growth: 0.986
- compound: "C[C@]12CCC3c4ccc(OS(=O)(=O)O)cc4CCC3C1CC[C@H]2O (stereo partly specified)"
  normalized growth: 1
- compound: "O=C(O[C@@H]1Cc2c(O)cc(O)cc2O[C@@H]1c1cc(O)c(=O)c2c(O)c(O)cc([C@H]3Oc4cc(O)cc(O)c4C[C@H]3O)c2c1)c1cc(O)c(O)c(O)c1"
  normalized growth: 0.715

----------
measurementNotes: chemical genetic growth profiling, strain panel (AID 1159580);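 further: tested at 20 µM; growth read once vehicle control cultures reached saturation at 30 °C; 1 = growth at the plate median or of vehicle wells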
testContext: S. cerevisiae deletion strains, growth OD, locus YOR083W, strain WHI5, stronger effect = lower value
About 2,000 (36%) of roughly 5,500 compounds were called active. Not shown: some 18% with an inconclusive outcome. The list shows a part of the results.

- molecule: "O=C1[O][Bi][O]c2ccccc21"
  normalized growth: "1.03 (inactive)"
- molecule: "CC(=O)O[C@@H]1CC2C(C)(C)C(=O)C=C[C@]2(C)C2CC[C@@]3(C)[C@H](c4ccoc4)OC(=O)[C@H]4O[C@]43[C@@]21C (stereo partly drawn)"
  normalized growth: "0.98 (inactive)"
- molecule: "C=CC1C2=CCOC(=O)C2=COC1OC1OC(CO)C(O)C(O)C1O (stereo not drawn)"
  normalized growth: "1.01 (inactive)"
- molecule: "CC1(C)C2CC(=O)[C@]3(C)C(CC[C@@]4(C)[C@H](c5ccoc5)OC(=O)[C@H]5O[C@]543)[C@@]2(C)C(=O)C[C@H]1O (stereo partly drawn)"
  normalized growth: "1.01 (inactive)"
- molecule: "COc1cc(OC)c2c(=O)c(OC)c(-c3ccc(OC)c(OC)c3)oc2c1"
  normalized growth: "0.997 (inactive)"
- molecule: "C[C@@H]1O[C@@H](OC[C@H]2OC(Oc3c(-c4ccc(OCCO)c(OCCO)c4)oc4cc(OCCO)cc(O)c4c3=O)[C@H](O)[C@@H](O)[C@@H]2O)[C@H](O)[C@H](O)[C@H]1O (stereo partly drawn)"
  normalized growth: "0.987 (inactive)"
- molecule: "CC1(C)C2CC(=O)[C@]3(C)C(CC[C@@]4(C)[C@H](c5ccoc5)OC(=O)C5OC543)[C@@]2(C)[C@@H](O)C[C@H]1O (stereo partly drawn)"
  normalized growth: "1.02 (inactive)"
- molecule: "CC1(C)C(=O)C=C[C@@]2(C)C1C[C@@H](O)[C@]1(C)C2CC[C@@]2(C)[C@H](c3ccoc3)OC(=O)[C@H]3O[C@]321 (stereo partly drawn)"
  normalized growth: "1 (inactive)"

----------
measurementNotes: chemical genetic growth profiling, strain panel (AID 1159580);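 further: tested at 20 µM; growth read once vehicle control cultures reached saturation at 30 °C; 1 = growth at the plate median or of vehicle wells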
testContext: S. cerevisiae deletion strains, growth OD, locus YNL197C, strain WHI3
The campaign covered roughly 5,500 compounds. About 2,000 (36%) were called active. Another 18% or so got no clear call; they are omitted. No stated cut-off is given here; in the data, active means normalized growth mostly below about 0.91 (no sharp cut-off); inconclusive means no clear call, values can overlap the other calls; inactive means mostly above about 0.92. This is one part of the list. Where a SMILES comes first, the peptide text is derived from it. The star is where a group is joined. Cbz = O=C(OCc1ccccc1)*
Outcomes: y (active), n (inactive)

- molecule: "CCC1(O)CC2CN(CCc3c([nH]c4ccccc34)[C@@](C(=O)OC)(c3cc4c(cc3OC)N(C=O)C3[C@]45CCN4CC=C[C@@](CC)([C@@H](OC(C)=O)[C@]3(O)C(=O)OC)[C@H]45)C2)C1 (stereo partly specified)"
  labelClass: "n"
- molecule: "N#C/C(=C\\c1ccc(O)c(O)c1)C(=O)NCc1ccccc1"
  labelClass: "n"
- molecule: "NC(=O)CN1CCCC1=O"
  labelClass: "n"
- molecule: "COc1ccc(Cl)cc1C(=O)NCCc1ccc(S(=O)(=O)NC(=O)NC2CCCCC2)cc1"
  labelClass: "n"
- molecule: "Oc1ccc(-c2nc(-c3ccc(F)cc3)c(-c3ccncc3)[nH]2)cc1"
  labelClass: "n"
- molecule: "N#CC(C#N)=Cc1ccc(O)c(O)c1"
  labelClass: "n"
- molecule: "O=c1c(O)c(-c2ccc(O)cc2O)oc2cc(O)cc(O)c12"
  labelClass: "n"
- molecule: "CC(C)(C)c1cc(C=C(C#N)C#N)cc(C(C)(C)C)c1O"
  labelClass: "y"
- molecule: "CCCC1O[C@@H]2C[C@H]3[C@@H]4CCC5=CC(=O)C=C[C@]5(C)[C@H]4[C@@H](O)C[C@]3(C)[C@]2(C(=O)CO)O1 (stereo partly specified)"
  labelClass: "n"
- molecule: "CN1CCC2(CCN3CCc4c(oc5ccccc45)C3C2)N(C)C1=O (stereo unspecified)"
  labelClass: "n"
- molecule: "N#C/C(=C\\c1ccc(O)c(O)c1)C(=O)NCCCc1ccccc1"
  labelClass: "n"
- molecule: "CC(C)[C@H](NC(=O)OCc1ccccc1)C(=O)N[C@H](C=O)Cc1ccccc1 (Cbz-Val-Phe-aldehyde)"
  labelClass: "n"
- molecule: "N[C@H](C(=O)O)c1cc(O)cc(O)c1"
  labelClass: "n"
- molecule: "c1ccc(-c2ccccn2)nc1"
  labelClass: "n"
- molecule: "FC(F)(F)c1cc(CO[C@H]2CCCN[C@H]2c2ccccc2)cc(C(F)(F)F)c1"
  labelClass: "n"
- molecule: "C1COC(NC(C2CC2)C2CC2)=N1"
  labelClass: "n"
- molecule: "NC(=S)NCCCC(N)C(=O)O (stereo unspecified)"
  labelClass: "n"
- molecule: "C=C(C)[C@H]1CN[C@H](C(=O)O)[C@H]1CC(=O)O"
  labelClass: "n"
- molecule: "CC(C)C[C@H](N)CSSC[C@@H](N)CC(C)C"
  labelClass: "n"
- molecule: "CCCC(C)(COC(N)=O)COC(=O)NC(C)C (stereo unspecified)"
  labelClass: "n"
- molecule: "NC[C@@H]1O[C@H](C23CC4CC(CC(C4)C2)C3)Cc2c1ccc(O)c2O"
  labelClass: "n"
- molecule: "N#C/C(=C/c1ccc(O)c(O)c1)C(N)=S"
  labelClass: "n"
- molecule: "CC(C)(C)NCC(O)c1cc(O)cc(O)c1 (stereo unspecified)"
  labelClass: "n"
- molecule: "COc1cc2c(cc1OC)[C@@H](c1ccccc1)CN(C)CC2"
  labelClass: "n"
- molecule: "O=C1NC(=O)C(c2ccccc2[N+](=O)[O-])=C1Nc1ccc(O)c(Cl)c1"
  labelClass: "n"
- molecule: "CCC(CO)NC(=O)C1C=C2c3cccc4[nH]cc(c34)CC2N(C)C1 (stereo unspecified)"
  labelClass: "n"
